So I've got a bunch of compounds here, and I need their GI50 values.
System: DU-145
Experiment: NCI tumour cell line growth inhibition, 48 h
Activity calls are given as the source filed them. Rule as the data show it: active = GI50 up to about 1.1 µM and inactive = higher.

O=C(Sc1n[nH]c(=O)[nH]c1=O)c1cccc2nc3ccccc3nc12
10.6 µM (inactive)
CC[C@@H]1CC[C@@H]2[C@H](CC[C@]3(C)[C@@H](O)CC[C@@H]23)[C@H]1CO
> 100 µM (inactive)
NC1CC(=O)c2c1sc(Cl)c2Cl (stereo not given)
> 100 µM (inactive)

Quick one: give me GI50 for each item below, same order please.
1. C1CSCCSCCSCCSC1
2. COC1(OC)CC(CO)(CNc2nc(N)nc(Cl)c2/C=N\O)C1
3. CCC1c2[nH]c3ccccc3c2C[C@H]2C(=O)NC(Cc3ccccc3)C(=O)N12 (stereo not given in full)

## Result
1: > 100 µM (inactive); 2: 34.3 µM (inactive); 3: 40 µM (inactive)

List reported GI50 for each of these compounds:
1. CCOC(=O)CCC(NC(=O)c1ccc(N2CCN(c3c(C)nc(N)nc3N)CC2)cc1)C(=O)OCC (stereo not given)
2. CCOc1ccc(NC(=S)N/C=C(/C(C)=O)C(=O)Nc2ccccc2C)cc1
3. COC(=O)[C@@](C)(COC(=O)C(C)(C)C)NC(=O)OC(C)(C)C
4. Cc1cc2c(cc1-c1cc3c(cc1C)C(C(C)C)=C(O)C(=O)/C3=C\Nc1nc(-c3ccccc3)cs1)/C(=C/Nc1nc(-c3ccccc3)cs1)C(=O)C(O)=C2C(C)C
5. CS(C)(=O)=Nn1c(=O)n2n(c1=O)C1c3ccccc3C2c2ccccc21
6. CCNC(=O)c1cc(Cl)ccc1NC(=O)C12CC3CC(CC(C3)C1)C2

## Result
> 100 µM (inactive)
> 100 µM (inactive)
> 100 µM (inactive)
23.7 µM (inactive)
> 100 µM (inactive)
28.4 µM (inactive)

// each listed compound needs a value for GI50
1. N=C(N)NCCCC(NCc1c2ccccc2nc2ccccc12)C(=O)O (stereo not given)
2. COC(=O)CC1(O)C(C=C(C)C)C(C(=O)OC)C(=O)C(C(=O)OC)C1C(=O)OC (stereo not given)
3. Nc1nc2ccc3ccccc3c2[nH]1
4. C[C@]12CC[C@@H]3c4ccc(O)cc4CC[C@H]3[C@@H]1CC[C@@H]2OC(=O)CCc1ccccc1
5. NCCCN(CCCCN(CCCN)Cc1ccc2ccccc2c1)Cc1ccc2ccccc2c1
6. CC1(C)C(=S)C(C)(C)C1=S
7. O=C1C(Nc2ccc(S(=O)(=O)Nc3cnc4ccccc4n3)cc2)=C/C(=N\c2ccc(S(=O)(=O)Nc3cnc4ccccc4n3)cc2)c2ccccc21

## Result
["> 100 µM (inactive)", "> 100 µM (inactive)", "> 10 µM (inactive)", "19.5 µM (inactive)", "2.22 µM (inactive)", "> 100 µM (inactive)", "16.9 µM (inactive)"]

Let me check: O=C(CC(C(=O)c1ccoc1)c1ccco1)c1ccco1 (stereo not given) , system DU-145, measured GI50 is > 100 µM (inactive)

* * *

Tested on: OVCAR-3
Experiment: NCI tumour cell line growth inhibition, 48 h
The source made the active and inactive calls. No stated cut-off is given here; in the data, active = GI50 up to about 1.1 µM and inactive = higher. Residues, ends and D or L forms follow the SMILES beside them. Groups on a side chain read outwards from the residue. *: point of attachment. Cbz = O=C(OCc1ccccc1)*; Boc = CC(C)(C)OC(=O)*
Experimental endpoint: GI50

CCCCCC(C(O)C#N)C(O)(C(F)(F)F)C(F)(F)F (stereo not given)
> 10 µM (inactive)

# map each compound to its GI50
1. COC1OC(COC(C)=O)C(OC(C)=O)C(OC(C)=O)C1NC(=O)N(CCCl)N=O (stereo not given)
2. Cc1cc(O)nc(NNC(C#N)c2ccc(N(C)C)cc2)n1 (stereo not given)

## Result
1: > 100 µM (inactive); 2: > 100 µM (inactive)

Quick batch: GI50 for everything below.
1. Nc1nc2sc3ccccc3c(=O)n2n1
2. CC(C)(C)OC(=O)NC(CCCCNC(=O)CNC(=O)OCc1ccccc1)C(=O)NC(CCCCNC(=O)CNC(=O)OCc1ccccc1)C(=O)NC(CCCCNC(=O)CNC(=O)OCc1ccccc1)C(=O)NC(CCCCNC(=O)CNC(=O)OCc1ccccc1)C(=O)O (stereo not given) (Boc-K([Gly-Cbz])K([Gly-Cbz])K([Gly-Cbz])K([Gly-Cbz])-OH; configuration not given here)

## Result
["> 100 µM (inactive)", "> 100 µM (inactive)"]
